target: Caspase recruitment domain-containing protein 9 (Homo sapiens) + E3 ubiquitin-protein ligase TRIM62 (Homo sapiens) (UniProt Q9H257+Q9BVG3); assay: CARD9/TRIM62 protein interaction inhibitors – cell lysate, HEK293FT lysates, Luminex bead readout, dose response (AID 1259338); conditions: Luminex bead PPI, MFI, at 80 µM (top of the series); for activity change, negative = inhibition: reference of the scale not given here
Sequence (Q9BVG3 whole entry, looked up, the tested form may be a part): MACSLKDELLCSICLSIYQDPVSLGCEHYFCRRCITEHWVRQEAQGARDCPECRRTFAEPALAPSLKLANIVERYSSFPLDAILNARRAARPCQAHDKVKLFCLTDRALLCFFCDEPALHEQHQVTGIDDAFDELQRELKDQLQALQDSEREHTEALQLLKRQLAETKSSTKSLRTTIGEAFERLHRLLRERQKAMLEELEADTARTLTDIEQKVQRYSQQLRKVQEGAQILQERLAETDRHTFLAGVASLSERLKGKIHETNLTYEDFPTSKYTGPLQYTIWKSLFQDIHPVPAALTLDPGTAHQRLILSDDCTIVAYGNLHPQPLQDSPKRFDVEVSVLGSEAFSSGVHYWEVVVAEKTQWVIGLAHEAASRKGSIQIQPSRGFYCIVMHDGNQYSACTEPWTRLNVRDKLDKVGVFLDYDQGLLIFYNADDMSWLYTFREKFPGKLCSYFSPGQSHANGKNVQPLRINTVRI
Sequence (Q9H257 whole entry, looked up, the tested form may be a part): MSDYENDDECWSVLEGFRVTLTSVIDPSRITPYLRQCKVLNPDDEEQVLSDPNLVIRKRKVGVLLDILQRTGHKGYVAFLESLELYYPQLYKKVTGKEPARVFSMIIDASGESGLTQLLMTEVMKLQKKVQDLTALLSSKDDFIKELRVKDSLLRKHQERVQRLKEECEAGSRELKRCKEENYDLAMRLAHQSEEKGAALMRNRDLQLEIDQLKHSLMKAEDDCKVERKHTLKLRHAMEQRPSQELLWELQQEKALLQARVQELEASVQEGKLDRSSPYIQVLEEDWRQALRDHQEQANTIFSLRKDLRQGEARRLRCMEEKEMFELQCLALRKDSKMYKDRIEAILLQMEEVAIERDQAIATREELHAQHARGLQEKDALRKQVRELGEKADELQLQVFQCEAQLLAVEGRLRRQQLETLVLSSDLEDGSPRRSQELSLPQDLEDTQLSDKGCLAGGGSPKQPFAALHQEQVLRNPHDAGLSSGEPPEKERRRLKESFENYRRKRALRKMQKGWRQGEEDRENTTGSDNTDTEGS
The source made the active and inactive calls.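 Rule for the calls: active = compounds lowering the signal with a fitted AC50 at or below a set concentration limit; inconclusive = flat curve with 30 to 70% inhibition, or a poor fit; inactive = the rest.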

[
  {
    "Molecule": "Cc1nn2c(c1-c1ccccc1)NC(c1ccco1)=CC2c1ccco1 (stereo unspecified)",
    "activity change, negative = inhibition": "inactive"
  },
  {
    "Molecule": "CC1CCN(c2nc(-c3ccco3)c3c(c2C#N)CC(C)(C)OC3)CC1",
    "activity change, negative = inhibition": "inactive"
  },
  {
    "Molecule": "COc1ccc(S(=O)(=O)Nc2ccc3c(c2)C(=O)N([C@H](C)CO)C[C@H](C)[C@@H](CN(C)C(=O)C2CCCCC2)OCCCC[C@H](C)O3)cc1",
    "activity change, negative = inhibition": "inactive"
  },
  {
    "Molecule": "O=C(COC(=O)c1ccc(S(=O)(=O)NCc2ccco2)cc1)Nc1ccc(Cl)cn1",
    "activity change, negative = inhibition": "inactive"
  },
  {
    "Molecule": "N#Cc1c(NC(=O)CSc2nc3ccccc3o2)sc2c1CCC2",
    "activity change, negative = inhibition": "inactive"
  },
  {
    "Molecule": "O=C(Nc1ncccc1O)c1ccc(OCC2CCCO2)cc1 (stereo unspecified)",
    "activity change, negative = inhibition": "inactive"
  }
]

* * *

target: Caspase recruitment domain-containing protein 9 (Homo sapiens) + E3 ubiquitin-protein ligase TRIM62 (Homo sapiens) (UniProt Q9H257+Q9BVG3); assay: CARD9/TRIM62 protein interaction inhibitors – cell lysate, HEK293FT lysates, Luminex bead readout, dose response (AID 1259338); conditions: Luminex bead PPI, MFI
Calls of active or inactive are those of the source.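 Rule for the calls: active = compounds lowering the signal with a fitted AC50 at or below a set concentration limit; inconclusive = flat curve with 30 to 70% inhibition, or a poor fit; inactive = the rest.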
Classes used: y = active, n = inactive

[
  {
    "Compound": "O=C(Nc1ccc2oc(-c3ccncc3)nc2c1)c1ccc2c(c1)OCO2",
    "Group": "y"
  },
  {
    "Compound": "N#Cc1c(N)oc(-c2ccco2)c1-c1ccco1",
    "Group": "n"
  },
  {
    "Compound": "O=C(NCCCN1CCOCC1)c1cc(-c2ccco2)nc2ccccc12",
    "Group": "y"
  },
  {
    "Compound": "COc1cccc(NC(=O)CN(C)C(=O)c2cc3c(s2)CCC3)c1",
    "Group": "y"
  },
  {
    "Compound": "O=C1CC2(CCN(C(=O)Nc3ccccc3)CC2)CN1Cc1ccc(Cl)cc1",
    "Group": "y"
  },
  {
    "Compound": "Nc1c(C(=O)NCc2ccco2)c2nc3ccccc3nc2n1CCN1CCOCC1",
    "Group": "n"
  },
  {
    "Compound": "O=C1C=C(c2ccccc2)Nc2ccccc2N1",
    "Group": "n"
  },
  {
    "Compound": "CC1=CCC(C(=O)O)C(C(=O)NC2CCCCC2)C1 (configuration not stated)",
    "Group": "y"
  },
  {
    "Compound": "CC(=O)c1ccc(NC(=O)c2noc3c2CCC3)cc1",
    "Group": "n"
  },
  {
    "Compound": "COc1ccc(S(=O)(=O)N2CCOCC2)cc1NC(=O)c1cccc(-n2cccc2)c1",
    "Group": "y"
  },
  {
    "Compound": "Cc1noc(C)c1S(=O)(=O)Nc1ccc2c(c1)C(=O)N([C@H](C)CO)C[C@H](C)[C@@H](CN(C)C(=O)C1CCCCC1)OCCCC[C@H](C)O2",
    "Group": "n"
  },
  {
    "Compound": "O=C1c2ccccc2-c2nc3ccccc3nc21",
    "Group": "n"
  },
  {
    "Compound": "COc1ccc(S(=O)(=O)N2CCN(C(=O)c3cc4c(s3)CCC4)CC2)cc1",
    "Group": "y"
  },
  {
    "Compound": "Cc1ccc(-c2nnc(-c3nc(Nc4nc5ccccc5s4)c4ccccc4n3)o2)cc1",
    "Group": "y"
  },
  {
    "Compound": "NC(=O)c1ccc(CN2C(=O)C3(CCNCC3)Nc3ccccc32)cc1",
    "Group": "n"
  },
  {
    "Compound": "Cc1ccc(N2NC(c3ccc(Br)cc3)=CCC2=O)cc1",
    "Group": "y"
  },
  {
    "Compound": "c1cn(CCc2noc(C3CCCC3)n2)c(-c2cc3n(n2)CCCNC3)n1",
    "Group": "y"
  },
  {
    "Compound": "NC(=O)C1(N2CCCCC2)CCN(c2ncc(NC(=O)c3ccccc3)cc2C(=O)O)CC1",
    "Group": "y"
  },
  {
    "Compound": "COc1ccc(-n2c(C)c3c(OC)cccc(=O)c3c2C)cc1",
    "Group": "y"
  },
  {
    "Compound": "O=C(O)C1Oc2cc3ccccc3cc2O1",
    "Group": "y"
  },
  {
    "Compound": "C[C@H](CO)N1C[C@H](C)[C@@H](CN(C)CC2CCCCC2)OCCCC[C@H](C)Oc2ccc(NS(C)(=O)=O)cc2C1=O",
    "Group": "y"
  },
  {
    "Compound": "Cc1ccc(Nc2nc(C(=O)Nc3ccc(Cl)cc3)nc3ccccc23)cc1",
    "Group": "y"
  }
]

* * *

target: Caspase recruitment domain-containing protein 9 (Homo sapiens) + E3 ubiquitin-protein ligase TRIM62 (Homo sapiens) (UniProt Q9H257+Q9BVG3); test: CARD9/TRIM62 protein interaction inhibitors – cell lysate, HEK293FT lysates, Luminex bead readout, dose response (AID 1259338); conditions: Luminex bead PPI, MFI
The source made the active and inactive calls.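 How the source made its calls: active means compounds lowering the signal with a fitted AC50 at or below a set concentration limit; inconclusive means flat curve with 30 to 70% inhibition, or a poor fit; inactive means the rest.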
Classes used: active, inactive

[
  {
    "Compound": "Cc1ccc(S(=O)(=O)Nc2ccc3c(c2)C(=O)N([C@H](C)CO)C[C@H](C)[C@@H](CN(C)C(=O)C2CCCCC2)OCCCC[C@H](C)O3)cc1",
    "Group": "inactive"
  },
  {
    "Compound": "OCc1ccc(O)c2ncccc12",
    "Group": "active"
  },
  {
    "Compound": "O=C(NCc1ccco1)c1c2c(nc3ccccc13)CCC2",
    "Group": "inactive"
  },
  {
    "Compound": "Cc1ncnc(N2CCC(c3nccn3Cc3cccnc3)CC2)c1C",
    "Group": "inactive"
  },
  {
    "Compound": "C[C@H](CO)N1C[C@H](C)[C@@H](CN(C)CC2CCCCC2)OCCCC[C@H](C)Oc2ccc(NS(=O)(=O)c3ccc(F)cc3)cc2C1=O",
    "Group": "active"
  },
  {
    "Compound": "CCc1ccc(Nc2nc(C(=O)NCc3ccc(N(C)C)cc3)nc3ccccc23)cc1",
    "Group": "active"
  },
  {
    "Compound": "O=C(Nc1nccs1)c1cc(-c2ccccn2)nc2c(Cl)cccc12",
    "Group": "inactive"
  },
  {
    "Compound": "NC(=O)C1(N2CCCCC2)CCN(c2ccc(NC(=O)c3ccccc3F)cc2C(=O)O)CC1",
    "Group": "active"
  },
  {
    "Compound": "COc1ccc(S(=O)(=O)Nc2ccc3c(c2)C(=O)N([C@H](C)CO)C[C@H](C)[C@@H](CN(C)CC2CCCCC2)OCCCC[C@H](C)O3)cc1",
    "Group": "inactive"
  },
  {
    "Compound": "NC(=O)C1(N2CCCCC2)CCN(c2ncc(NC(=O)c3ccc(F)cc3)cc2C(=O)O)CC1",
    "Group": "active"
  },
  {
    "Compound": "O=C(NCCc1ccccc1)c1cc2cccnc2n(Cc2ccccc2)c1=O",
    "Group": "inactive"
  },
  {
    "Compound": "CCN1CCN(C(=O)c2cc(-c3ccco3)nc3ccccc23)CC1",
    "Group": "active"
  },
  {
    "Compound": "NC(=O)C1(N2CCCCC2)CCN(c2ncc(NC(=O)c3cccs3)cc2C(=O)O)CC1",
    "Group": "active"
  },
  {
    "Compound": "Cc1ccccc1C(=O)Nc1cnc(N2CCC(C(N)=O)(N3CCCCC3)CC2)c(C(=O)O)c1",
    "Group": "active"
  },
  {
    "Compound": "Cc1cncc(-c2ccc(S(N)(=O)=O)cc2F)c1",
    "Group": "active"
  },
  {
    "Compound": "CCCN1CCCn2nc(CNC(=O)[C@H]3CC[C@@H](N)C3)cc2C1",
    "Group": "active"
  },
  {
    "Compound": "NC(=O)C1(N2CCCCC2)CCN(c2ncc(NC(=O)c3ccccc3F)cc2C(=O)O)CC1",
    "Group": "active"
  },
  {
    "Compound": "O=C(NCc1cccnc1)c1ccccc1-c1nc(-c2ccccc2)no1",
    "Group": "inactive"
  },
  {
    "Compound": "CC(=O)c1cccc(OCC(=O)N(C)CC(=O)NCc2ccco2)c1",
    "Group": "active"
  },
  {
    "Compound": "O=C(Cc1ccc(S(=O)(=O)N2CCOCC2)s1)Nc1nc2c(s1)CCCC2",
    "Group": "inactive"
  },
  {
    "Compound": "O=C(O)c1ccc2nc(-c3ccco3)c(-c3ccco3)nc2c1",
    "Group": "active"
  },
  {
    "Compound": "COCC(=O)N1CCCC2(CCN(CCN3CCCC3)C2=O)C1 (stereo not given)",
    "Group": "inactive"
  },
  {
    "Compound": "O=S(=O)(c1ccccc1)N1CC2CN(Cc3ccc(O)cc3)C2C1 (stereo not given)",
    "Group": "active"
  },
  {
    "Compound": "Nc1ccc(-c2cccc(CN3CCCC3)c2)cc1",
    "Group": "inactive"
  },
  {
    "Compound": "Cc1ccc(-c2cc(C(=O)NCc3ccco3)c3ccccc3n2)o1",
    "Group": "active"
  },
  {
    "Compound": "Cc1c(C(=O)OCC2CCCO2)[nH]c2c1C(=O)CC(c1ccco1)C2 (stereo not given)",
    "Group": "inactive"
  },
  {
    "Compound": "O=C(CN1CCOC1=O)N1CCC2(CCC(=O)N(CCCn3ccnc3)C2)CC1",
    "Group": "inactive"
  },
  {
    "Compound": "NC(=O)C1(N2CCCCC2)CCN(c2ncc(NC(=O)c3ccc(Cl)cc3)cc2C(=O)O)CC1",
    "Group": "active"
  },
  {
    "Compound": "COc1ccc(S(=O)(=O)c2ccccc2)cc1NS(=O)(=O)c1cccc(C(=O)O)c1",
    "Group": "inactive"
  },
  {
    "Compound": "Cc1ccc(C(=O)Nc2ccc(N3CCC(C(N)=O)(N4CCCCC4)CC3)c(C(=O)O)c2)cc1",
    "Group": "active"
  },
  {
    "Compound": "Cc1ccsc1[C@@H]1CCN(Cc2ccc(-c3ccn[nH]3)o2)C[C@H]1O",
    "Group": "inactive"
  },
  {
    "Compound": "O=C(Nc1ccc(OCC(=O)N2CCOCC2)cc1)c1cncc(Br)c1",
    "Group": "active"
  },
  {
    "Compound": "NC(=O)C1(N2CCCCC2)CCN(c2ncc(NC(=O)c3cccc(Cl)c3)cc2C(=O)O)CC1",
    "Group": "active"
  },
  {
    "Compound": "CCOC(=O)C1CCN(C(=O)CN(Cc2ccccc2)S(C)(=O)=O)CC1",
    "Group": "inactive"
  },
  {
    "Compound": "O=C(Nc1nccs1)c1cc(-c2ccco2)nc2ccccc12",
    "Group": "inactive"
  },
  {
    "Compound": "O=C(NC1CC1)c1cc(-c2ccco2)nc2ccccc12",
    "Group": "inactive"
  },
  {
    "Compound": "c1ccc(-c2nc(-c3ccco3)n3ccccc23)cc1",
    "Group": "inactive"
  },
  {
    "Compound": "CCCN1CCCn2nc(CNC(=O)[C@@H](N)Cc3ccc(O)cc3)cc2C1",
    "Group": "active"
  },
  {
    "Compound": "Cc1ccc2cc(CN(Cc3ccco3)S(C)(=O)=O)c(=O)[nH]c2c1",
    "Group": "inactive"
  },
  {
    "Compound": "O=C(COC(=O)c1ccc(F)cc1F)Nc1ncccn1",
    "Group": "active"
  }
]
